tested on: Receptor-type tyrosine-protein kinase FLT3 (Homo sapiens), P36888 [UNDEFINED MUTATION]; assay: Inhibition of FLT3 ITD mutant (unknown origin) expressed in BaF3 cells assessed as inhibition of cell proliferation after 72 hrs by CelltiterGlo assay; format: cell-based
Sequence (P36888 whole entry, looked up, change not shown): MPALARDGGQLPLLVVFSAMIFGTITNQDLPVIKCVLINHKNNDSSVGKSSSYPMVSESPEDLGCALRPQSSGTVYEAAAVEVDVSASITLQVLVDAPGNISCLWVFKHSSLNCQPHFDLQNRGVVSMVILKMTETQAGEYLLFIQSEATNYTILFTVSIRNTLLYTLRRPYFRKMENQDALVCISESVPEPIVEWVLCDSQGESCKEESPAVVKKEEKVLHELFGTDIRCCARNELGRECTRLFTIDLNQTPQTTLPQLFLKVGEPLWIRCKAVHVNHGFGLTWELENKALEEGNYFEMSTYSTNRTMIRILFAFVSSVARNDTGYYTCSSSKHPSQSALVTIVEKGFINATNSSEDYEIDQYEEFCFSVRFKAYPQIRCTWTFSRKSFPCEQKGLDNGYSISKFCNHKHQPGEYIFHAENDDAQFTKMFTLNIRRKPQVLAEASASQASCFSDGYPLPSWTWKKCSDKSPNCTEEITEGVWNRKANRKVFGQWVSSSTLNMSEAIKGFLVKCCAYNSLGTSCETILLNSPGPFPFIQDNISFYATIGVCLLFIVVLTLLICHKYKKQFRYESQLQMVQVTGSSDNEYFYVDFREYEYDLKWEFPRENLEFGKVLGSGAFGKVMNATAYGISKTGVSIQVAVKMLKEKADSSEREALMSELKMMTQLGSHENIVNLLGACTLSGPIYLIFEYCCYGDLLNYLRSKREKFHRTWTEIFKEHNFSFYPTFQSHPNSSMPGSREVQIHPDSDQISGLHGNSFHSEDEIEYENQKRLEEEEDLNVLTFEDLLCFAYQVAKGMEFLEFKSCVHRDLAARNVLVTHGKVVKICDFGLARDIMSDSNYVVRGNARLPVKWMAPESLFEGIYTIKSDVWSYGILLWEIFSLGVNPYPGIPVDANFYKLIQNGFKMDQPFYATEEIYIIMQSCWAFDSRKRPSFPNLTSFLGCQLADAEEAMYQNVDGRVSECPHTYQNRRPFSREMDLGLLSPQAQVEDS
Please provide measured GI50 for the entries that follow.
One number for each entry, in nM.

Recorded GI50, per entry:
Smiles Input | GI50, nM
CN1CCC(C(=O)N2CCC[C@@H](n3nc(-c4ccc(Oc5ccccc5)cc4)c4c(N)ncnc43)C2)CC1 | 77
NCCC(=O)N1CCC[C@@H](n2nc(-c3ccc(Oc4ccccc4)cc3)c3c(N)ncnc32)C1 | 390
CCCS(=O)(=O)N1CCC[C@@H](n2nc(-c3ccc(Oc4ccccc4)cc3)c3c(N)ncnc32)C1 | 160

Please examine the following record next.
# lookup: GI50 of `CS(=O)(=O)N1CCC[C@@H](n2nc(-c3ccc(Oc4ccccc4)cc3)c3c(N)ncnc32)C1` 48

* * *

test: Cytotoxicity against mouse BAF3 cells assessed as cell proliferation after 72 hrs by CelltiterGlo assay; type: cell-based
Consider the following compounds; for each one, report its GI50 at 72 h.
Give bare numbers, in µM.

Smiles Input | GI50 at 72 h / µM
C[C@@H](N)C(=O)N1CCC[C@@H](n2nc(-c3ccc(Oc4ccccc4)cc3)c3c(N)ncnc32)C1 | 3.8

As a next step, examine the compound that follows.
Fill in the blank: the reported GI50 at 72 h of `CN(C)CC(=O)N1CCC[C@H](n2nc(-c3ccc(Oc4ccccc4)cc3)c3c(N)ncnc32)C1` is ____. 5.8

* * *

test: Apparent volume of distribution in Sprague-Dawley rat at 1 mg/kg, iv; format: ADME, organism-based; conditions: in vivo, read-out: Vd(app)
Parameter Measured: Vd

Vd for `CN(C)CC(=O)N1CCC[C@@H](n2nc(-c3ccc(Oc4ccccc4)cc3)c3c(N)ncnc32)C1` ? 3.23 L/kg

* * *

experiment: AUC(0 to infinity) in Sprague-Dawley rat at 10 mg/kg, po; type: ADME, organism-based; parameters: dose 10 mg/kg, route oral, time infinity; conditions: in vivo
Parameter Measured: AUCinf (ng·h/mL)
Answers are plain numbers, in ng·h/mL.

Item under review: `CN(C)CC(=O)N1CCC[C@@H](n2nc(-c3ccc(Oc4ccccc4)cc3)c3c(N)ncnc32)C1` . Reported AUCinf? 1880

* * *

tested on: Receptor-type tyrosine-protein kinase FLT3 (Homo sapiens), P36888 [UNDEFINED MUTATION]; experiment: Inhibition of FLT3 ITD mutant (unknown origin) expressed in BaF3 cells assessed as inhibition of cell proliferation after 72 hrs by CelltiterGlo assay; assay type: cell-based
Parameter Measured: GI50 (nM)
Numbers only, in nM.

The following compounds have reported results that may help.
Smiles Input | GI50 [nM]
CC(C)C[C@@H](N)C(=O)N1CCC[C@@H](n2nc(-c3ccc(Oc4ccccc4)cc3)c3c(N)ncnc32)C1 | 5
NCC(=O)N1CC[C@@H](n2nc(-c3ccc(Oc4ccccc4)cc3)c3c(N)ncnc32)C1 | 80

Below: the item to evaluate.
// returns reported GI50 for input `CN1CCN(CC(=O)N2CCC[C@@H](n3nc(-c4ccc(Oc5ccccc5)cc4)c4c(N)ncnc43)C2)CC1` 93

* * *

experiment: Mean residence time (0 to infinity) in Sprague-Dawley rat at 10 mg/kg, po; type: ADME, organism-based; details: in vivo
Parameter Measured: MRT inf

May I ask what MRT inf has been recorded for `CN(C)CC(=O)N1CCC[C@@H](n2nc(-c3ccc(Oc4ccccc4)cc3)c3c(N)ncnc32)C1` ? 2.75 h

* * *

test: Tmax in Sprague-Dawley rat at 10 mg/kg, po; type: ADME, organism-based; settings: in vivo
Parameter Measured: Tmax

# lookup: Tmax of `CN(C)CC(=O)N1CCC[C@@H](n2nc(-c3ccc(Oc4ccccc4)cc3)c3c(N)ncnc32)C1` 1.67 h

* * *

experiment: Cytotoxicity against mouse BAF3 cells assessed as cell proliferation after 72 hrs by CelltiterGlo assay; type: cell-based
Please go through the items and note down their GI50 at 72 h.
One number for each entry, in µM.

Smiles Input | Reported Measurement
CCC(C)(C)C(=O)N1CCC[C@@H](n2nc(-c3ccc(Oc4ccccc4)cc3)c3c(N)ncnc32)C1 | 4.5

Alright, here's another compound for you.
Entry under review: `CC(C)C[C@@H](N)C(=O)N1CCC[C@@H](n2nc(-c3ccc(Oc4ccccc4)cc3)c3c(N)ncnc32)C1` . Reported GI50 at 72 h? 1.3

* * *

assay: Oral bioavailability in Sprague-Dawley rat at 10 mg/kg; type: ADME, organism-based; conditions: in vivo
Parameter Measured: bioavailability

May I ask what bioavailability has been recorded for `CN(C)CC(=O)N1CCC[C@@H](n2nc(-c3ccc(Oc4ccccc4)cc3)c3c(N)ncnc32)C1` ? 30.4%

* * *

molecular target: Mast/stem cell growth factor receptor Kit (Homo sapiens, UniProt P10721)
Sequence (P10721 whole entry): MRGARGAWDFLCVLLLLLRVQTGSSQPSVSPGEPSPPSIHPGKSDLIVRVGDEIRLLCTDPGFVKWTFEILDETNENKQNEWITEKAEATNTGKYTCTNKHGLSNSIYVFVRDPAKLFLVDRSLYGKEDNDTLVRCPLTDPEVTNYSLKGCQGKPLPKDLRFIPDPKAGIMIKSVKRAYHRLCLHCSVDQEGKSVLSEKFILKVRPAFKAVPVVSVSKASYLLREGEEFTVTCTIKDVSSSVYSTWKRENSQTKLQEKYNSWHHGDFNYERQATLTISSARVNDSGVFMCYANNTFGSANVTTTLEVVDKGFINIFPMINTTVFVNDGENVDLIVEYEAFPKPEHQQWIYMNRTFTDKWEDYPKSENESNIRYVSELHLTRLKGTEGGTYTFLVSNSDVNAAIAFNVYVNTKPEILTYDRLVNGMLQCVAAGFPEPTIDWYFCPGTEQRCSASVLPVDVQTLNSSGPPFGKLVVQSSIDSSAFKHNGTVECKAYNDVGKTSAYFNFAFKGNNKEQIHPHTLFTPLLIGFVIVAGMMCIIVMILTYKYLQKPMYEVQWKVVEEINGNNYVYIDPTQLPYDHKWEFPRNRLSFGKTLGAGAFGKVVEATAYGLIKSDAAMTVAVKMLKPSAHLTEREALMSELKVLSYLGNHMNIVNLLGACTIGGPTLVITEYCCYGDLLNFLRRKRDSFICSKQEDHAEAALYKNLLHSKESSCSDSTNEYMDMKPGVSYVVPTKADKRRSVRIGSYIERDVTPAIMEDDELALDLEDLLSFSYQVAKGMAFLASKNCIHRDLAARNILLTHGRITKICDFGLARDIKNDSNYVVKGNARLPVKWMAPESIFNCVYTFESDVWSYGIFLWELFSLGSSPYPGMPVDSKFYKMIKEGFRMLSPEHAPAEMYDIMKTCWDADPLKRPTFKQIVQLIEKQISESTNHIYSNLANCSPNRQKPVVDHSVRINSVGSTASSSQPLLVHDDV
Parameter Measured: IC50

What IC50 value was documented for this compound, `CN(C)CC(=O)N1CCC[C@@H](n2nc(-c3ccc(Oc4ccccc4)cc3)c3c(N)ncnc32)C1` ? 559 nM

* * *

assay: Clearance in Sprague-Dawley rat at 1 mg/kg, iv; type: ADME, organism-based; conditions: in vivo
Parameter Measured: clearance (mL/min/kg)
Give bare numbers, in mL/min/kg.

Which clearance value belongs to `CN(C)CC(=O)N1CCC[C@@H](n2nc(-c3ccc(Oc4ccccc4)cc3)c3c(N)ncnc32)C1` ? 26.9

* * *

assay: Cmax in Sprague-Dawley rat at 10 mg/kg, po; assay type: ADME, organism-based; design: dose 10 mg/kg, route oral; details: in vivo
Parameter Measured: Cmax (ng/mL)
Numbers only, in ng/mL.

# lookup: Cmax of `CN(C)CC(=O)N1CCC[C@@H](n2nc(-c3ccc(Oc4ccccc4)cc3)c3c(N)ncnc32)C1` 458

* * *

experiment: Cmax in Sprague-Dawley rat at 1 mg/kg, iv; format: ADME, organism-based; set-up: dose 1 mg/kg, route intravenous; conditions: in vivo
Parameter Measured: Cmax

Look at this molecule and give its reported Cmax. `CN(C)CC(=O)N1CCC[C@@H](n2nc(-c3ccc(Oc4ccccc4)cc3)c3c(N)ncnc32)C1` 1500 ng/mL

* * *

tested on: Receptor-type tyrosine-protein kinase FLT3 (Homo sapiens), P36888 [UNDEFINED MUTATION]; assay: Inhibition of FLT3 ITD mutant (unknown origin) expressed in BaF3 cells assessed as inhibition of cell proliferation after 72 hrs by CelltiterGlo assay; assay type: cell-based
Parameter Measured: GI50 (nM)
One number for each entry, in nM.

Could you tell me GI50 for each of these compounds? They are listed below.
1. CCS(=O)(=O)N1CCC[C@@H](n2nc(-c3ccc(Oc4ccccc4)cc3)c3c(N)ncnc32)C1
2. NCC(=O)N1CCC[C@@H](n2nc(-c3ccc(Oc4ccccc4)cc3)c3c(N)ncnc32)C1
3. C[C@@H](N)C(=O)N1CCC[C@@H](n2nc(-c3ccc(Oc4ccccc4)cc3)c3c(N)ncnc32)C1
4. CC(C)(C)CC(=O)N1CCC[C@@H](n2nc(-c3ccc(Oc4ccccc4)cc3)c3c(N)ncnc32)C1

140
7
22
460

* * *

test: Mean residence time (0 to infinity) in Sprague-Dawley rat at 1 mg/kg, iv; format: ADME, organism-based; conditions: in vivo
Parameter Measured: MRT inf (h)
Numbers only, in h.

Could you share which MRT inf value was measured for `CN(C)CC(=O)N1CCC[C@@H](n2nc(-c3ccc(Oc4ccccc4)cc3)c3c(N)ncnc32)C1` ? 1.15

* * *

system: Receptor-type tyrosine-protein kinase FLT3 (Homo sapiens), P36888 [UNDEFINED MUTATION]; test: Inhibition of FLT3 ITD mutant (unknown origin) expressed in BaF3 cells assessed as inhibition of cell proliferation after 72 hrs by CelltiterGlo assay; assay type: cell-based
Give measured log10(GI50) for each item. Keep answers brief.
Please keep in mind that the values are log10 of GI50 expressed in nM.

For every item in the list below, what is its measured log10(GI50)?
1. CCC(=O)N1CCC[C@@H](n2nc(-c3ccc(Oc4ccccc4)cc3)c3c(N)ncnc32)C1
2. CC(C)C[C@@H](N)C(=O)N1CCC(n2nc(-c3ccc(Oc4ccccc4)cc3)c3c(N)ncnc32)CC1
3. CN(C)CC(=O)N1CCC(n2nc(-c3ccc(Oc4ccccc4)cc3)c3c(N)ncnc32)CC1
4. CS(=O)(=O)N1CCC(n2nc(-c3ccc(Oc4ccccc4)cc3)c3c(N)ncnc32)CC1

[1.45, 1.88, 1.88, 2.28]

// for each compound in input: emit log10(GI50)
1. CC(O)[C@@H](N)C(=O)N1CCC[C@@H](n2nc(-c3ccc(Oc4ccccc4)cc3)c3c(N)ncnc32)C1 (stereo partly drawn)
2. CC(C)[C@@H](N)C(=O)N1CCC[C@@H](n2nc(-c3ccc(Oc4ccccc4)cc3)c3c(N)ncnc32)C1
3. CS(=O)(=O)N1CC[C@@H](n2nc(-c3ccc(Oc4ccccc4)cc3)c3c(N)ncnc32)C1
4. C=CC(=O)N1CCC[C@@H](n2nc(-c3ccc(/C=C/c4ccccc4)cc3)c3c(N)ncnc32)C1

1: 1.34; 2: 1.23; 3: 2.11; 4: 3.26
